Target: T1, EGFRvIII target antigen (SPR ligand) (UniProt P00533 25-645, limits assumed)
T1 construct: also called EGFRvIII antigen
Experiment: SPR; antibody as analyte
reportedMetric: koff (s⁻¹)
Respond numerically; units are s⁻¹ and should not be typed.

Query: Answer with the recorded koff for the binder listed here: humanized antibody 40-2-H10 (98G2E9-VH5 + VL6) (scFv, the format in the SPR assay is not clearly stated) scFv: EVQLLESGGGLVQPGGSLKLSCAASGFTFSGYAMSWVRQTPGKGLEWVATITSGGSYTYYPDSVKGRFTISRDNSKNTLYLQMNSLRAEDTAMYYCARKDYGNYWFAYWGQGTLVTVSSGGGGSGGGGSGGGGSGGGGSDVVMTQSPLSLPVTLGQQASISCRSSQSLVHSDGNTYLHWYLQKPGQSPKLLIYKVSNRFSGVPDRFSGSGSGTDFTLKISRVEAEDVGVYFCSQTTQVPWTFGGGTKLEIK
Reply: 0.00345

Query: Determine from records and report koff for humanized antibody 40-2-H9 (98G2E9-VH5 + VL5) (scFv, the format in the SPR assay is not clearly stated) scFv: EVQLLESGGGLVQPGGSLKLSCAASGFTFSGYAMSWVRQTPGKGLEWVATITSGGSYTYYPDSVKGRFTISRDNSKNTLYLQMNSLRAEDTAMYYCARKDYGNYWFAYWGQGTLVTVSSGGGGSGGGGSGGGGSGGGGSDVVMTQSPLSLPVTLGDPASISCRSSQSLVHSDGNTYLHWYLQRPGQSPRLLIYKVSNRFSGVPDRFSGSGSGTDFTLKISRVEAEDVGVYFCSQTTQVPWTFGGGTKLEIK
Reply: 0.00307
